experiment: Inhibition of human intestinal carboxylesterase using o-nitrophenyl acetate as substrate
Decision: Ki beneath 0.2 µM gives YES; Ki meeting or exceeding 0.2 µM gives NO.

[
  {
    "Record smiles": "CC(C)C1=Cc2ccc3c(c2C(=O)C1=O)CCCC3",
    "Cat": "YES"
  },
  {
    "Record smiles": "CC1=Cc2ccc3c(c2C(=O)C1=O)CC(C)(C)CC3",
    "Cat": "YES"
  },
  {
    "Record smiles": "CC1(C)CCc2ccc3c(c2C1)C(=O)C(=O)C=C3",
    "Cat": "NO"
  },
  {
    "Record smiles": "CC1=Cc2ccc3c(c2C(=O)C1=O)CCOC3",
    "Cat": "NO"
  },
  {
    "Record smiles": "CC1=Cc2ccc3c(c2C(=O)C1=O)CCCC3",
    "Cat": "NO"
  },
  {
    "Record smiles": "COC1=Cc2ccc3c(c2C(=O)C1=O)CC(C)(C)CC3",
    "Cat": "YES"
  }
]

====

Listed below: Ki values for each entry.
Biological target: Liver carboxylesterase 1 (Homo sapiens)
Sequence (P23141 whole entry): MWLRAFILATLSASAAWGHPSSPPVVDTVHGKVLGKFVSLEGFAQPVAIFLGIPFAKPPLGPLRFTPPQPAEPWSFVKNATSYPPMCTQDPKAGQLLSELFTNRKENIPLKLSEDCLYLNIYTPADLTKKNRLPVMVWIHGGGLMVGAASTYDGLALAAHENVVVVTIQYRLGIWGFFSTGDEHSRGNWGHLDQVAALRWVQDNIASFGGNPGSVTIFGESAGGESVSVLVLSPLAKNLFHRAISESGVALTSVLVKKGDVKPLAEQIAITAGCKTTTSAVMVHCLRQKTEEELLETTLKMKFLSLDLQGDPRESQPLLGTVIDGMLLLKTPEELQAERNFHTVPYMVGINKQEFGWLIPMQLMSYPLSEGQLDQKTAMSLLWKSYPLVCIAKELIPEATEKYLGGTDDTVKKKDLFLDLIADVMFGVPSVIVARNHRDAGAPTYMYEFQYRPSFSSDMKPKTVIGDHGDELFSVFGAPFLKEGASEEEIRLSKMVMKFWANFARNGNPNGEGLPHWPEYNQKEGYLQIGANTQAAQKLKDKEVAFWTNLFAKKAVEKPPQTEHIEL
Value type: Ki (nM)

[
  {
    "Record smiles": "CC1(C)CCc2ccc3c(c2C1)C(=O)C(=O)C=C3F",
    "Unit abbreviation": "nM",
    "Censor symbol": "=",
    "Result": 14.4
  },
  {
    "Record smiles": "CC1=Cc2ccc3c(c2C(=O)C1=O)CC(C)(C)CC3",
    "Unit abbreviation": "nM",
    "Censor symbol": "=",
    "Result": 2420
  },
  {
    "Record smiles": "O=C1C(=O)c2c(ccc3ccccc23)C=C1F",
    "Unit abbreviation": "nM",
    "Censor symbol": "=",
    "Result": 48.7
  },
  {
    "Record smiles": "CC(C)C1=Cc2ccc3c(c2C(=O)C1=O)CCCC3",
    "Unit abbreviation": "nM",
    "Censor symbol": "=",
    "Result": 1050
  },
  {
    "Record smiles": "CC(C)C1=Cc2ccc3c(c2C(=O)C1=O)CCC(C)(C)C3",
    "Unit abbreviation": "nM",
    "Censor symbol": "=",
    "Result": 4200
  },
  {
    "Record smiles": "CC1=Cc2ccc3c(c2C(=O)C1=O)CCOC3",
    "Unit abbreviation": "nM",
    "Censor symbol": "≥",
    "Result": 10000
  }
]
